Origin of values: paper PMC12208134

Test system: host Vero cell
assayProtocol: Vero host cell toxicity in the intracellular T. cruzi assay
Format: cell-based
appliedConditions: Chlorocebus sabaeus, Vero, individual replicate
Protocol: T. cruzi intracellular potency and rate-of-kill assay (high content imaging) ^1 Silvio X10/7 T. cruzi trypomastigotes were incubated at 37°C 5% CO2 with 1.6×10^7 Vero cells overnight at MOI10 in MEM media supplemented with 10% foetal calf serum (FCS). Extracellular parasites were removed by aspirating cell culture supernatant, and washing Vero monolayer with 10 ml serum-free MEM three times. […]
pEC50: −log10 of the molar value.
measuredParameter: pEC50

{"molecule": "COc1ccc(CN2C(=O)C(N)C(=O)N(c3ccc(OC)nc3)c3ccccc32)cc1 (centres unmarked) [Compound 18]", "measuredParameter": "pEC50", "observedMeasurement": "< 4.30"}
{"molecule": "O=C(Nc1ccc(F)cc1)NC1C(=O)Nc2ccccc2N(c2ccccc2)C1=O (centres unmarked) [Compound 3]", "measuredParameter": "pEC50", "observedMeasurement": "< 4.30"}
{"molecule": "Cc1ccc(NC(=O)NC2COc3ccccc3N(c3ccccc3)C2=O)cc1 (centres unmarked) [Compound 13]", "measuredParameter": "pEC50", "observedMeasurement": 4.40}
{"molecule": "COc1ccc(CN2C(=O)C(N)C(=O)N(c3ccccc3)c3ccccc32)cc1 (centres unmarked) [Compound 15]", "measuredParameter": "pEC50", "observedMeasurement": "< 4.30"}
{"molecule": "COc1ccc(CN2C(=O)C(N)C(=O)N(c3ccc(F)cc3)c3ccccc32)cc1 (centres unmarked) [Compound 17]", "measuredParameter": "pEC50", "observedMeasurement": "< 4.30"}
{"molecule": "COc1ccc(N2C(=O)C(NC(=O)Nc3ccc(C)cc3)C(=O)Nc3ccccc32)cc1 (centres unmarked) [Compound 4]", "measuredParameter": "pEC50", "observedMeasurement": "< 4.30"}
{"molecule": "CC(C)N(C(=O)CN1C(=O)C(N)C(=O)N(c2ccccc2)c2ccccc21)c1ccccc1 (single isomer, unassigned) [14-Ent 1]", "measuredParameter": "pEC50", "observedMeasurement": "< 4.30"}
{"molecule": "COc1ccc(NC(=O)NC2C(=O)Nc3ccccc3N(c3ccccc3)C2=O)cc1 (centres unmarked) [Compound 2]", "measuredParameter": "pEC50", "observedMeasurement": "< 4.30"}
